Entries annotated with measured Bmax (OD values)
# measured_target: T1, cynomolgus galectin-10-His, WGS isoform (cynomolgus)
# T1 construct: not shown: His tag
# T1 chain: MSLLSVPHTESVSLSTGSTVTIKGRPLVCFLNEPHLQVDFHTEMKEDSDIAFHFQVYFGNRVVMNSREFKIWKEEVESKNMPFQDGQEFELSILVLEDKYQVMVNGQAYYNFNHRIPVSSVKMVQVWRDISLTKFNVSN
# experiment_notes: ELISA, Gal10-His coated at 1 ug/mL, VHH titrated, anti-Myc-HRP
measured_endpoint: Bmax (OD values) (OD)

{"columns": ["binder", "measured_endpoint", "unit_text", "measurement"],
 "data": [
  ["VHH clone 13C10 (VHH, Purified VHH-Myc-His from E. coli; not shown: Myc and His tags of the phagemid vector) VHH: QLQLVESGGGLVQAGGSLKLSCAASGRTFNPYTMGWFRQAPGKEREFVAVVSSGGGTYYANSVKGRFTISRDNAKATVYLQMNSLKPEDTAVYYCAAGSIFRWSPMSYDYWGQGTQVTVSS", "Bmax (OD values)", "OD", 2.3],
  ["VHH clone 13G12 (VHH, Purified VHH-Myc-His from E. coli; not shown: Myc and His tags of the phagemid vector) VHH: QLQVVESGGGLVQAGGSLRLSCAASSSAYSMGWFRQAPGKEREFVAVISWSGGSHYDDSVKGRFTISRDGAKNTVYLQMNSLKPEDTAVYYCAVGTLYSFRYRDYDYWGQGTQVTVSS", "Bmax (OD values)", "OD", 2.9],
  ["VHH clone 14E10 (VHH, Purified VHH-Myc-His from E. coli; not shown: Myc and His tags of the phagemid vector) VHH: ELQLVESGGGLVQAGGSLRLSCAASEGTFRPYAMGWFRQAPRKEREFVAVISLSGAYTYNVNAVKGRFTISRDNAKNTVYLQMNSLTPEDTAIYYCGASRTYYRTDESTYEYWGQGTQVTVSS", "Bmax (OD values)", "OD", 1.4],
  ["VHH clone 14F10 (VHH, Purified VHH-Myc-His from E. coli; not shown: Myc and His tags of the phagemid vector) VHH: EVQLVESGGGLVQAGDSLRLSCAASGRTFSGYAVGWFRQAPGKEREFVTIISWNGGTHYADSVKGRFAISRDNAKNTVYLQMNNLKPEDTAVYYCAVSPKYYFSPETYNYWGQGTQVTVSS", "Bmax (OD values)", "OD", 2.6],
  ["VHH clone 1D06 (VHH, not shown: large carriers, Positive control from the previous human-specific panel; also called 1D6) VHH: QLQLVESGGGLVQPGGSLRLSCAASENSVSTYAMGWFRQAPGKEREFVAAITRAGGNTYNADSVKGRFTISRDNAENTIYLQMNSLKPEDTAVYSCAAGPRYSTISTMFPYWGQGTQVTVSS", "Bmax (OD values)", "OD", 0],
  ["VHH clone 13E07 (VHH, Purified VHH-Myc-His from E. coli; not shown: Myc and His tags of the phagemid vector) VHH: ELQVVESGGGLVQAGDSLRLSCAVSGRTFSSYHMMWFRQAPGKEREFVAAIAWRGGTYCANSVKGRCTISRDNAKDTVYLQMNSLKPEDTAVYFCAASLRYVFDPSAMDYWGKGTLVTVSS", "Bmax (OD values)", "OD", 2.3],
  ["VHH clone 13D12 (VHH, Purified VHH-Myc-His from E. coli; not shown: Myc and His tags of the phagemid vector) VHH: QLQLVESGGGLVQAGDSLRLSCAASGRTFSSYHMMWFRQAPGKEREFVAALAWRGGTYCANSVKGRCTISRDNAQDTVYLQMNSLKPEDTAVYFCAASRRYVFDPSAMDYWAKGTLVTVSS", "Bmax (OD values)", "OD", 1.3],
  ["VHH clone 13H07 (VHH, Purified VHH-Myc-His from E. coli; not shown: Myc and His tags of the phagemid vector) VHH: QLQLVESGGGLVQAGGSLRLSCVASGRTFSTYAMDWFRQAPGKEREFVAAISWHSAIYYADAVKGRFTISRDNGKNTMYLQMNNLKPEDTAVYFCAAALRYRFNPSAMEYWGKGTLVTVSS", "Bmax (OD values)", "OD", 2.7]
]}

Value source: patent US20190367619A1
